Recorded values, source patent US20120213771A1.

Molecular target: T1, recombinant human CD27/TNFRSF7/Fc chimera (R&D Systems Catalog No. 382-CD) (UniProt P26842 20-191)
T1 chain: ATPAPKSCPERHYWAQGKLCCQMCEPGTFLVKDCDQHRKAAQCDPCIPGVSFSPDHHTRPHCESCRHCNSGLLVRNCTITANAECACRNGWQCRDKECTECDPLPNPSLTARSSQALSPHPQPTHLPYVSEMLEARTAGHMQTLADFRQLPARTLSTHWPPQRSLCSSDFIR
Experiment: Biacore SPR
property.measured: Ka (M⁻¹)
Please respond with the number in M⁻¹ and leave the unit unwritten.

Guide cases for Ka, answers given:
3H12-1E12 (antibody, V domains shown) VH: QVQLVESGGGVVQPGRSLRLSCATSGFTFSSYDMHWVRQAPGKGLEWVAVIWYDGSNKYYADSVKGRFTISRDNSKNTLYLQMNSLGDEDTAVYYCARGSGNWGFFDYWGQGTLVTVSS VL: DIQMTQSPSSLSASVGDRVTITCRASQGISRWLAWYQQKPEKAPKSLIYAASSLQSGVPSRFSGSGSGTDFTLTISSLQPEDFATYYCQQYNTYPRTFGQGTKVEIK; 2.8e+09
3H8-1B11 (antibody, V domains shown) VH: EVQLVESGGGLVQPGGSLRLSCAASGFTFSSYWMAWVRQAPGKGLEWLGNIKQDGSEKYYVDSVKGRFTISRDNAKNSLYLQMNSLRAEDTAVYYCVRELGMDWYFDLWGRGTLVTVSS VL: EIVLTQSPATLSLSPGERATLSCRASQSVDSYLAWYQQKPGQAPRLLIYDASNRATGIPARFSGSGSGTDFTLTISNLEPEDFAVYYCQQRSNWPPTFGQGTKVEIK; 1.81e+10
2G9-1D11 (antibody, V domains shown) VH: QVQLVESGGGVVQPGRSLRLSCAASGFTLSSHDIHWVRQAPGKGLEWVAVIWNDGSNKYYADSVKGRFTISRDNSTNSLFLQMNSLRAEDTAVYYCVRGTADLEHWDQGTLVTVSS VL: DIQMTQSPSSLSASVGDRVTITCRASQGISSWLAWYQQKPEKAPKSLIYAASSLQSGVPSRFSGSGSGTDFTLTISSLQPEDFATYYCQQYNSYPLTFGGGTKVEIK; 6.6e+11

Now for a further binder.
Input line: Supply recorded Ka for 3A10-G10 (antibody, V domains shown) VH: QVQLVESGGGVVQPGRSLRLSCAASGFTFSHYGMHWVRQAPGKGPEWVAIIWYDGSNKYYADSVKGRFTISRDNSKNTLDLQMNSLRAEDTAVYYCARDGWTTMVRGLNVFDIWGQGTMVTVSS VL: DIQMTQSPSSLSASVGDRVTITCRASQDISSWLAWYQQKPEKAPKSLIYAASSLQSGVPSRFSGSGSGTDFTLTISSLQPEDFATYYCQQYNSYPPTFGQGTRLEIK here.
Output line: 4.97e+09
